Assign protein stability index to each entry below.
B1: C9orf25 (parent)
chain: LARKGSLKNGSMGSPVNQQPKKNN

- Variants of: B1
- testDetails: protein stability index of a GFP-peptide fusion (GPS, HEK-293T) (PSI 1-6); higher = more stable;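 further: lentivirally expressed fusions sorted by FACS into six bins by GFP to DsRed ratio, PSI derived from sequencing read proportions per bin multiplied by bin number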
- conditionsUsed: c terminus: a fixed tail appended
// print number alone

Given K22Q , state its recorded protein stability index.
4.82

Quick one: N24Q
4.85

Please answer likewise for S14D
4.96

And G5L ?
3.55

Can you check P15D next?
5.45

Further, for M12L ?
4.44

Please do the same for N23I as well.
4.61

Subsequent entry: G5A
4.5

Now consider K21G and answer again.
4.25

// repeat for N17D and report
5.12

Please give the result for S6H too.
4.43

Now try Q19L .
4.67

// next record K4L
4.23

Same question, P15I this time
4.66

Repeat with K8L
4.12

What about N24Y ?
3.78

Field entry: N23L
4.04

Now this one: Q18R
4

Param item: A2R
3.68

What do you have for L1K ?
4.76

Could you do the same for M12F , please?
4.56

One more variant: G10D
4.61

Consider next the variant Q19S in the same way.
4.89

Request: S6V
4.29

For R3A then?
5.05

Cool, now G5T
4.53

Can you check K22W next?
3.9

And A2Y ?
4.24

Same question, N17Q this time
4.74

Another variant to look at: N9Q
4.92

Cool, now K22R
4.37

Subsequent entry: G10L
4.65

Request: K22M
4.49

Can you check K4Q next?
3.95

How about this variant: M12T
4.74

What would you report for G10C ?
4.33

Query G13E next
5.23

Continue with S6Y
4.89

Please answer likewise for N24R
4.42

Do the same for S11H please
4.15

Follow-up entry: S14I
4.62

How about this variant: N23A
4.63

Follow-up item: G10S
4.14

Another variant: N24M
4.02

Here is the next variant: G13C
5.04

Can you check S11K next?
4.7

// same read-out, input: Q19A
4.92

Then this variant: G5Y
3.27

Next variant up: G10V
4

Same lookup for M12I , please.
4.42

Also check L1Y
3.77

Likewise for K8R ?
4.57

Subsequent entry: M12C
4.58

Field entry: V16N
4.4

Next variant up: N17T
3.98

What would you report for R3I ?
4.58

# iterate: N24C
4.69

Try the variant N17C
4.53

Follow-up item: P20N
4.67

What do you have for S14Y ?
4.25

Let us now turn to N23W
4

Please answer likewise for R3D
5.2

And for G10Y ?
4.35

Can you check L7G next?
4.57

Now this one: S11W
4.45

Let us now turn to Q18A
4.74

# iterate: Q18H
4.82

And what about the variant P20E ?
4.59

Subsequent entry: A2M
4.9

// next record M12P
4.84

Please answer likewise for R3S
4.67

Check K8E too.
4.29

Same question, Q18E this time
5.18

What would you report for K22I ?
3.8

Param item: K22P
4.42

Follow-up entry: S6G
4.64

Do the same for Q19Y please
4.58

Moving on to the next variant: G13L
4.92

Same question, K4I this time
3.71

Lookup Q18S
4.97

Now try R3V .
4.85

What about L1A ?
5.34

Subsequent entry: P20R
4.25

What do we get for N9V ?
4.42

Same read-out for L7A ?
4.51

Same thing, different variant: S11I
4.41

Next variant up: V16C
4.23

Here is the next variant: A2C
4.12

Quick one: V16P
4.89

S14K ?
4.83

Next variant up: K21C
3.98
